Known Plant response rating, Chickweed of a selection of compounds
# System: chickweed
# MEASUREMENT_PROTOCOL: Test C postemergence test
# Type: in vivo, Stellaria media
# CONDITION_DESCRIPTION: 62 g ai/ha, scale 0 to 100, 0 no effect, 100 complete control
MEASUREMENT_KIND: Plant response rating, Chickweed

{"COMPOUND": "Cc1cc[n+]([O-])c(S(=O)(=O)Cc2c(C(F)(F)F)nn(C)c2OC(F)F)c1", "VALUE_REPORTED": 0}
{"COMPOUND": "Cc1cc[n+]([O-])c([S+]([O-])Cc2c(C(F)(F)F)nn(C)c2OC(F)F)c1 (stereo not drawn)", "VALUE_REPORTED": 65}
{"COMPOUND": "CC(c1c(C(F)(F)F)nn(C)c1OC(F)F)S(=O)(=O)c1cccc[n+]1[O-] (stereo not drawn)", "VALUE_REPORTED": 0}
{"COMPOUND": "Cn1nc(C(F)(F)F)c(C[S+]([O-])c2cccc[n+]2[O-])c1OCC(F)(F)C(F)(F)F (stereo not drawn)", "VALUE_REPORTED": 0}
{"COMPOUND": "[O-][n+]1cc(Cl)ccc1[S+]([O-])Cc1c(C(F)(F)F)nn(CC(F)(F)F)c1Cl (stereo not drawn)", "VALUE_REPORTED": 0}
{"COMPOUND": "Cn1nc(C(F)(F)F)c(C[S+]([O-])c2ccc(F)c[n+]2[O-])c1OCC(F)(F)F (stereo not drawn)", "VALUE_REPORTED": 60}

====

# Test system: barnyardgrass
# MEASUREMENT_PROTOCOL: Test F preemergence test
# Assay type: in vivo, Echinochloa crus-galli
# CONDITION_DESCRIPTION: Preemergence; 16 g ai/ha; scale 0 to 100
# Text: Seeds of plant species selected from bermudagrass (Cynodon dactylon), Surinam grass (Brachiaria decumbens), large crabgrass (Digitaria sanguinalis), green foxtail (Setaria viridis), goosegrass (Eleusine indica), johnsongrass (Sorghum halepense), kochia (Kochia scoparia), pitted morningglory (Ipomoea lacunosa), purple nutsedge (Cyperus rotundus), common ragweed (Ambrosia elation), mustard (Brassica nigra), guineagrass (Panicum maximum), […] […]
Known Plant response rating, Barnyardgrass of a selection of compounds
MEASUREMENT_KIND: Plant response rating, Barnyardgrass

{"COMPOUND": "Cn1nc(C(F)(F)F)c(C[S+]([O-])c2cccc[n+]2[O-])c1Cl (stereo not drawn)", "TARGET_DESC": "barnyardgrass", "VALUE_REPORTED": 70}
{"COMPOUND": "Cc1cc[n+]([O-])c([S+]([O-])Cc2c(C(F)(F)F)nn(C)c2OC(F)F)c1 (stereo not drawn)", "TARGET_DESC": "barnyardgrass", "VALUE_REPORTED": 60}
{"COMPOUND": "Cn1nc(C(F)(F)F)c(C[S+]([O-])c2ccc(Cl)c[n+]2[O-])c1OC(F)F (stereo not drawn)", "TARGET_DESC": "barnyardgrass", "VALUE_REPORTED": 70}

====

# System: morningglory
# MEASUREMENT_PROTOCOL: Test A pre-/postemergence greenhouse test
# Format: in vivo, Ipomoea spp.
# CONDITION_DESCRIPTION: Postemergence, 125 g ai/ha; 0 to 100 scale where 0 is no effect and 100 is complete control

{"COMPOUND": "Cn1nc(C(F)(F)F)c(C[S+]([O-])c2ccc(Cl)c[n+]2[O-])c1OCC(F)(F)F (racemic)", "Plant response rating, Morningglory": 90}
{"COMPOUND": "Cc1cc[n+]([O-])c([S+]([O-])Cc2c(C(F)(F)F)nn(C)c2OCC(F)(F)C(F)(F)F)c1 (stereo not shown)", "Plant response rating, Morningglory": 20}
{"COMPOUND": "Cn1nc(C(F)(F)C(F)(F)F)c(C[S+]([O-])c2ccc(Cl)c[n+]2[O-])c1OCC(F)(F)F (stereo not shown)", "Plant response rating, Morningglory": 70}
{"COMPOUND": "CCn1nc(C(F)(F)F)c(C[S+]([O-])c2cc(C)cc[n+]2[O-])c1OCC(F)(F)F (racemic)", "Plant response rating, Morningglory": 60}
{"COMPOUND": "Cn1nc(C(F)(F)F)c(CS(=O)(=O)c2ccc(F)c[n+]2[O-])c1OCC(F)(F)F", "Plant response rating, Morningglory": 0}
{"COMPOUND": "CCc1cc[n+]([O-])c([S+]([O-])Cc2c(C(F)(F)F)nn(C)c2OCC(F)(F)F)c1 (stereo not shown)", "Plant response rating, Morningglory": 50}
{"COMPOUND": "Cc1cc[n+]([O-])c(S(=O)(=O)Cc2c(C(F)(F)F)nn(C)c2OCC(F)(F)C(F)(F)F)c1", "Plant response rating, Morningglory": 10}
